Entries annotated with measured koff
- experimental target: T1, Histidine-tagged human CD40 protein (hCD40-His) (human, UniProt P25942 21-193)
- T1 construct: not shown: histidine tag
- T1 sequence (P25942 21-193 limits assumed): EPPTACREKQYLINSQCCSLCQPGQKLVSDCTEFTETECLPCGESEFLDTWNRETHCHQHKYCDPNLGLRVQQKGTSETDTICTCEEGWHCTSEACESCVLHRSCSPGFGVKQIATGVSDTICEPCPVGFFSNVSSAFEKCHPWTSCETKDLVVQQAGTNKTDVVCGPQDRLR
- measurement protocol: SPR, Biacore T200; antibody on Protein A chip, hCD40-His injected; 1:1 fit
Report only the number, with the unit s⁻¹ understood.

Consider the reported koff for these binders:
4H6-H4K1-IgG4 (antibody, V domains shown, Humanized) VH: EVQLQESGPGLVKPSQTLSLTCTVSGDSVSSGYWNWIRKFPGKKLEYMGFISYSGSTYYTPSLKSRITISRDTSKNQFSLKLSSVTAADTAVYFCARFRRYDDGVDYWGQGTLVTVSS VL: DIQMTQSPSAMSASVGDRVTITCRASHEISGYLSWFQQKPGGVIKRLINAASTLASGVPSRFSGSRSGTEFTLTISSLQPEDFATYYCLQYSSYPWTFGGGTKLEIK    0.0269
7F10-mHvKv-IgG1-N297A (antibody, V domains shown, Chimeric; human IgG1 constant regions with N297A mutation (EU numbering) in the Fc region) VH: EVKLVESGGGLVQPGGSLKLSCATSGFTFSDYYMYWVRQTPEKRLEWVAYISYGGDSTFYPDTVRGRFTISRDNAKNALYLQMSRLKSEDTAVYYCARPAPSAHSYYLDYWGQGTTLTVSS VL: DIQMTQTTSSLSASLGDRVTISCRASQDISNYLNWYQQKPDGTVKLLIYYTSRLHSGLPSRFSGSGSGTDYSLTISNLEQEDIATYYCQQGKTLPFTFASGTKLEIK    0.0292

Next binder, koff to be filled in.
// sample 7F10-H2K4-IgG4 (antibody, V domains shown, Humanized) VH: EVQLVESGGGLVQPGGSLRLSCATSGFTFSDYYMYWVRQAPGKRLEWVAYISYGGDSTFYPDTVRGRFTISRDNAKNSLYLQMSSLKAEDTAVYYCARPAPSAHSYYLDYWGQGTLLTVSS VL: DIQMTQSTSSLSASVGDRVTITCRASQDISNYLNWYQQKPDGTVKLLIYYTSRLHSGLPSRFSGSGSGTDYTLTISSLQQEDIATYYCQQGKTLPFTFASGTKLEIK , its koff was 0.038

Cited source for all entries: patent US20250034271A1
